Target: cAMP-specific 3',5'-cyclic phosphodiesterase 4B (Homo sapiens)
Sequence (Q07343 whole entry): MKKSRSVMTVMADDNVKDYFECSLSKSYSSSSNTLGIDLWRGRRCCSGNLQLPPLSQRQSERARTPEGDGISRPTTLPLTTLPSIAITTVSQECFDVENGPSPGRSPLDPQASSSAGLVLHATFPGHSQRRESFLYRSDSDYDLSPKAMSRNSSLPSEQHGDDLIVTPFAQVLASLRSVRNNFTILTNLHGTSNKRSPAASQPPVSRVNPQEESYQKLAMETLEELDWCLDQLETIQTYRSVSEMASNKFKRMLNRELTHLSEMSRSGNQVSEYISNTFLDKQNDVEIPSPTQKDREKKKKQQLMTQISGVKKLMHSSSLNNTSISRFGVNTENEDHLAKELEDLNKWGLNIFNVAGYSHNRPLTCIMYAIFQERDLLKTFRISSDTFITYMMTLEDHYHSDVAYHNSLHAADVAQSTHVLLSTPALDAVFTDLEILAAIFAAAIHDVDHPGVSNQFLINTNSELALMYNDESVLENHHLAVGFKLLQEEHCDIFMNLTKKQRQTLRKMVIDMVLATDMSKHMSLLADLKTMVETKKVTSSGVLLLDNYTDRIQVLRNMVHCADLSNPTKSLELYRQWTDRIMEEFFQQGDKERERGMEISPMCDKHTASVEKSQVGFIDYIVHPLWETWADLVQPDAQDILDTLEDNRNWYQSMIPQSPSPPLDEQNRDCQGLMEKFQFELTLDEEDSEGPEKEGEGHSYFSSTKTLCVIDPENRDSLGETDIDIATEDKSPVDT
Assay: Inhibition of full length recombinant human PDE4B1 expressed in Sf21 insect cells using cAMP as substrate by scintillation proximity assay
pKi: −log10 of the molar value.
test-readout: pKi

COc1ccc(C2=NN(C3CCCCCC3)C(=O)[C@@H]3CC=CC[C@H]23)cc1-c1ccc(C(=O)NCC(N)=O)cc1 :: 6.20
COc1ccc(C2=NN(C3CCCCCC3)C(=O)[C@@H]3CC=CC[C@H]23)cc1-c1ccc(C(=O)N2CCC(=O)C2)cc1 :: 5.50
COc1ccc(C2=NN(C3CCCCCC3)C(=O)[C@@H]3CC=CC[C@H]23)cc1-c1ccc(C(=O)N2CC(=O)N(C)C2)cc1 :: 5.60
COc1ccc(C2=NN(C3CCCCCC3)C(=O)[C@@H]3CC=CC[C@H]23)cc1-c1ccc(C(=O)N2CNC(=O)C2)cc1 :: 6.20

The origin of these recorded values is BindingDB's records for doi:10.1021/acs.jmedchem.7b01670.
